Here is a set of molecules with reported IC50 for MAPKAPK5 (Homo sapiens, UniProt Q8IW41), compiled from the literature.

molecule	target	IC50
O=C(NCc1ccc(O)cc1)c1cccc(Nc2ncc(-c3cn[nH]c3)n3ncnc23)c1	MAPKAPK5 (Homo sapiens, UniProt Q8IW41)	> 1 µM

Give IC50 (MAPKAPK5 (Homo sapiens, UniProt Q8IW41)) of the following molecule: O=C1NCc2cc(-c3cnc(NC4CCC4)c4nccn34)ccc21 0.101 to 0.5 µM

Give IC50 (MAPKAPK5 (Homo sapiens, UniProt Q8IW41)) of the following molecule: O=C(Nc1ccc(Nc2ncc(-c3cn[nH]c3)n3ccnc23)cn1)c1ccccc1 > 1 µM

Give IC50 (MAPKAPK5 (Homo sapiens, UniProt Q8IW41)) of the following molecule: NC(=O)c1ccc(-c2cnc(Nc3cccc(N4CCOCC4)c3)c3nccn23)cc1 > 1 µM

Give IC50 (MAPKAPK5 (Homo sapiens, UniProt Q8IW41)) of the following molecule: CN1CCC(Oc2ccc(Nc3ncc(-c4ccc(C(N)=O)c(F)c4)n4ccnc34)cc2)CC1 > 1 µM

Give IC50 (MAPKAPK5 (Homo sapiens, UniProt Q8IW41)) of the following molecule: CC(C)N1C[C@@H]2C[C@H]1CN2c1ccc(Nc2ncc(-c3cc[nH]c(=O)c3)n3ncnc23)cc1 > 1 µM

Give IC50 (MAPKAPK5 (Homo sapiens, UniProt Q8IW41)) of the following molecule: O=C1NCc2cc(-c3cnc(Nc4ccc(N5CCOCC5)nc4)c4nccn34)ccc21 0.001 to 0.1 µM

Give IC50 (MAPKAPK5 (Homo sapiens, UniProt Q8IW41)) of the following molecule: CC1(C)OCC(CNC(=O)c2ccc(Nc3ncc(-c4cn[nH]c4)n4ncnc34)cc2)O1 (stereo not drawn) 0.501 to 1 µM

Give IC50 (MAPKAPK5 (Homo sapiens, UniProt Q8IW41)) of the following molecule: c1nc2c(Nc3ccc(N4CCN(CC5CC5)CC4)cc3)ncc(-c3cn[nH]c3)n2n1 > 1 µM

----------
pIC50: −log10 of the molar value.
Here is a set of molecules with reported pIC50 for MAPKAPK5 (Homo sapiens), compiled from the literature.

smiles_structure	endpoint_name	reading
N#Cc1ccc(Nc2ncc(-c3cn[nH]c3)n3ccnc23)cc1Cl	pIC50	< 6.00

Give pIC50 (MAPKAPK5 (Homo sapiens)) of the following molecule: O=C1NCc2cc(-c3cnc(Nc4ccccc4)c4nccn34)ccc21 6.30 to 7.00

Give pIC50 (MAPKAPK5 (Homo sapiens)) of the following molecule: CCN(CC)CCNC(=O)c1ccc(Nc2ncc(-c3cc[nH]c(=O)c3)n3ccnc23)cc1 6.30 to 7.00

Give pIC50 (MAPKAPK5 (Homo sapiens)) of the following molecule: NC(=O)c1ccc(-c2cnc(Nc3ccc(-c4cccnc4)cc3)c3nccn23)cc1 < 6.00

Give pIC50 (MAPKAPK5 (Homo sapiens)) of the following molecule: NC(=O)c1cc(-c2cnc(Nc3ccc(N4CCOCC4)cc3)c3ncnn23)co1 6.30 to 7.00

Give pIC50 (MAPKAPK5 (Homo sapiens)) of the following molecule: c1nc2c(Nc3nc(CN4CCOCC4)cs3)ncc(-c3cn[nH]c3)n2n1 < 6.00

Give pIC50 (MAPKAPK5 (Homo sapiens)) of the following molecule: Cc1[nH]ncc1-c1cnc(Nc2ccc(N3CCN(C)CC3)cc2)c2nccn12 6.30 to 7.00

Give pIC50 (MAPKAPK5 (Homo sapiens)) of the following molecule: CC(C)(C)OC(=O)c1ccc(Nc2ncc(-c3cn[nH]c3)n3ccnc23)cc1 < 6.00

Give pIC50 (MAPKAPK5 (Homo sapiens)) of the following molecule: O=C(NCc1cccnc1)c1ccc(Nc2ncc(-c3cc[nH]c(=O)c3)n3ccnc23)cc1 6.00 to 6.30

Give pIC50 (MAPKAPK5 (Homo sapiens)) of the following molecule: NC(=O)c1cc(-c2cnc(Nc3ccc(C4CCN(CC(F)(F)F)CC4)cc3)c3nccn23)cs1 < 6.00

Give pIC50 (MAPKAPK5 (Homo sapiens)) of the following molecule: CCN(CC)CCNC(=O)c1ccc(Nc2ncc(-c3nc[nH]n3)n3ccnc23)cc1 < 6.00

Give pIC50 (MAPKAPK5 (Homo sapiens)) of the following molecule: NC(=O)c1ccc(-c2cnc(Nc3ccc(OCCN4CCOCC4)cc3)c3ncnn23)s1 6.00 to 6.30

Give pIC50 (MAPKAPK5 (Homo sapiens)) of the following molecule: CC(C)(C)N1CCN(c2ccc(Nc3ncc(-c4ccc5c(c4)CNC5=O)n4ncnc34)cc2)CC1 7.00 to 9.00

Give pIC50 (MAPKAPK5 (Homo sapiens)) of the following molecule: O=C(O)c1cccc(Nc2ncc(-c3cn[nH]c3)n3ccnc23)c1 < 6.00

----------
Here is a set of compounds with reported pIC50 for MAPKAPK5 (Homo sapiens), compiled from the literature.
pIC50: −log10 of the molar value.

compound	reading
CC(C)(C)OC(=O)NC1CCC(Nc2ncc(-c3ccc4c(c3)CNC4=O)n3ncnc23)CC1 (stereo not drawn)	6.00 to 6.30

Give pIC50 (MAPKAPK5 (Homo sapiens)) of the following compound: Cn1nnc(-c2ccc(Nc3ncc(-c4cn[nH]c4)n4ccnc34)cc2)n1 < 6.00

Give pIC50 (MAPKAPK5 (Homo sapiens)) of the following compound: CC(C)N1CCC(c2ccc(Nc3ncc(-c4csc(C(N)=O)c4)n4ccnc34)cc2)CC1 6.30 to 7.00

Give pIC50 (MAPKAPK5 (Homo sapiens)) of the following compound: NC(=O)c1cccc(Nc2ncc(-c3cn[nH]c3)n3ncnc23)c1 < 6.00

Give pIC50 (MAPKAPK5 (Homo sapiens)) of the following compound: NC(=O)c1c(F)cc(-c2cnc(Nc3ccc(N4CCOCC4)cc3)c3ncnn23)cc1F < 6.00

Give pIC50 (MAPKAPK5 (Homo sapiens)) of the following compound: O=C(NCC1CC1)c1ccc(Nc2ncc(-c3cn[nH]c3)n3ncnc23)cc1 < 6.00

Give pIC50 (MAPKAPK5 (Homo sapiens)) of the following compound: NC(=O)c1ccc(-c2cnc(Nc3ccc(N4CCOCC4)cc3)c3ncnn23)cc1 < 6.00

Give pIC50 (MAPKAPK5 (Homo sapiens)) of the following compound: O=C1NCc2cc(-c3cnc(NC4CCCCC4)c4nccn34)ccc21 6.30 to 7.00

Give pIC50 (MAPKAPK5 (Homo sapiens)) of the following compound: CC(C)N1C[C@@H]2C[C@H]1CN2c1ccc(Nc2ncc(-c3cc(C(N)=O)n[nH]3)n3ncnc23)cn1 6.30 to 7.00

Give pIC50 (MAPKAPK5 (Homo sapiens)) of the following compound: O=C1NCc2cc(-c3cnc(NCC4CCCCC4)c4ncnn34)ccc21 6.30 to 7.00

Give pIC50 (MAPKAPK5 (Homo sapiens)) of the following compound: NC(=O)c1ccc(-c2cnc(Nc3ccc(-n4ccnc4)cc3)c3nccn23)cc1 < 6.00

Give pIC50 (MAPKAPK5 (Homo sapiens)) of the following compound: CCN(CC)CCNC(=O)c1ccc(Nc2ncc(-c3cncc4ccccc34)n3ccnc23)cc1 < 6.00

Give pIC50 (MAPKAPK5 (Homo sapiens)) of the following compound: NC(=O)c1cnc(Nc2ccc(N3CCOCC3)cc2)c2nccn12 < 6.00

Give pIC50 (MAPKAPK5 (Homo sapiens)) of the following compound: CC(C)N1C[C@@H]2C[C@H]1CN2c1ccc(Nc2ncc(-c3coc(C(N)=O)c3)n3ncnc23)cn1 7.00 to 11.00

Give pIC50 (MAPKAPK5 (Homo sapiens)) of the following compound: c1cn2c(-c3cn[nH]c3)cnc(NCc3ccc(N4CCOCC4)cc3)c2n1 < 6.00

Give pIC50 (MAPKAPK5 (Homo sapiens)) of the following compound: NC(=O)c1cc(-c2cnc(NC3CCCC3)c3nccn23)co1 6.00 to 6.30

----------
Here is a set of compounds with reported IC50 for MAPKAPK5 (Homo sapiens, UniProt Q8IW41), compiled from the literature.

Would you please look over these solved cases?
compound	IC50
CN1CCN(c2ccc(Nc3ncc(-c4cc(C(N)=O)cs4)n4ccnc34)cc2)CC1	> 1000 nM
O=C(Nc1ccc(Nc2ncc(-c3cn[nH]c3)n3ncnc23)cn1)c1ccccc1	> 1000 nM
O=C(NCc1cccnc1)c1ccc(Nc2ncc(-c3cn[nH]c3)n3ccnc23)cc1	501 to 1000 nM
CC(C)N1CCN(c2ncc(Nc3ncc(-c4ccc5c(c4)CNC5=O)n4ccnc34)cn2)CC1	101 to 500 nM

Give IC50 (MAPKAPK5 (Homo sapiens, UniProt Q8IW41)) of the following compound: CC(C)N1CCN(c2ccc(Nc3ncc(-c4ccnc(CO)c4)n4ncnc34)cn2)CC1 > 1000 nM

Give IC50 (MAPKAPK5 (Homo sapiens, UniProt Q8IW41)) of the following compound: O=C(NCc1cc(-c2ccccc2)on1)c1ccc(Nc2ncc(-c3cn[nH]c3)n3ncnc23)cc1 > 1000 nM

Give IC50 (MAPKAPK5 (Homo sapiens, UniProt Q8IW41)) of the following compound: NC(=O)c1cc(-c2cnc(NC3CCN(Cc4ccccc4)C3)c3ncnn23)co1 (stereo not drawn) 501 to 1000 nM

Give IC50 (MAPKAPK5 (Homo sapiens, UniProt Q8IW41)) of the following compound: CC(C)N1CCN(c2ccc(Nc3ncc(-c4cc(C(N)=O)co4)n4ncnc34)cc2)CC1 > 1000 nM

Give IC50 (MAPKAPK5 (Homo sapiens, UniProt Q8IW41)) of the following compound: CCc1[nH]ncc1-c1cnc(Nc2ccc(N3CCOCC3)cc2)c2ncnn12 > 1000 nM
